Hi there, I'd appreciate the recorded IC50 for every entry that follows.
Dear colleague, please return just the value in nM, with no unit written.

In: Specify the recorded IC50 for Cc1cc(C(=O)N2C[C@@H](C)N[C@@H](C)C2)c(/C=C2\C(=O)Nc3cccc(-c4ccc(Cl)cc4)c32)[nH]1 , system: FGFR3 (Homo sapiens, UniProt P22607).
Sequence (P22607 23-806, species assumed): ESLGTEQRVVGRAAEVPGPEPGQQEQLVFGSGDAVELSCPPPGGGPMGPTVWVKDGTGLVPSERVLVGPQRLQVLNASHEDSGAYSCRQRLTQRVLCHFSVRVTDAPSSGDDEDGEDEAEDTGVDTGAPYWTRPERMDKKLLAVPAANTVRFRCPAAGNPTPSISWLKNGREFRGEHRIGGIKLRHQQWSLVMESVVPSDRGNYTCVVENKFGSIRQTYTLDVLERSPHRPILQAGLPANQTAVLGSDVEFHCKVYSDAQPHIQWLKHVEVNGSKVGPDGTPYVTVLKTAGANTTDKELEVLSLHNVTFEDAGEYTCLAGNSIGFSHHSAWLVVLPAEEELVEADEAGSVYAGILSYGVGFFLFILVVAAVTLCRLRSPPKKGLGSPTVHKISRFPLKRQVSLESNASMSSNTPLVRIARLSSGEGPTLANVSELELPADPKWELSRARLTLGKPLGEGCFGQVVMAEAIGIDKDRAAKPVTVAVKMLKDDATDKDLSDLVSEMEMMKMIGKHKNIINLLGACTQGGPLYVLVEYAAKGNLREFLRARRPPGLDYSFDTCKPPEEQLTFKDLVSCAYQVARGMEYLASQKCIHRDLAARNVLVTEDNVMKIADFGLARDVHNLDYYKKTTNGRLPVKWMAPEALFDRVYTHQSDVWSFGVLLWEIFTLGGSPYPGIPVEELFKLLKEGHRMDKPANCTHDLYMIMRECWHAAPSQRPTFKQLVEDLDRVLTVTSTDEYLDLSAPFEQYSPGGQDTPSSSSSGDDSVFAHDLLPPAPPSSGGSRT
Out: 610

In: Specify the recorded IC50 for CCN(CC)CCNC(=O)c1c(C)[nH]c(/C=C2\C(=O)Nc3cccc(-c4cccc(Br)c4)c32)c1C , system: FGFR3 (Homo sapiens, UniProt P22607).
Out: 94

In: Specify the recorded IC50 for Cc1cc(C(=O)N2CC[C@@H](N(C)C)C2)c(/C=C2\C(=O)Nc3cccc(-c4ccc(Cl)cc4)c32)[nH]1 , system: FGFR3 (Homo sapiens, UniProt P22607).
Out: 340

In: Specify the recorded IC50 for Cc1[nH]c(/C=C2\C(=O)Nc3cccc(-c4ccc(Br)cc4)c32)c(C)c1C(=O)N1CCN(C)CC1 , system: FGFR3 (Homo sapiens, UniProt P22607).
Out: 680

----------
Target: PDGFR (UniProt P09619)
Construct: PDGFR-β expressing NIH 3T3 cell lysate (SUGEN, Inc.)
Experiment: PDGFR bioassay (ELISA, in vitro kinase activity)
Conditions: PDGFR-β expressing NIH 3T3 cell lysate, 20 μM ATP
Hi there, I'd appreciate the recorded IC50 for every entry that follows.
Dear colleague, please return just the value in µM, with no unit written.

In: Give reported IC50 value for COc1ccc(-c2cccc3c2/C(=C/c2[nH]c(C)c(C(=O)NCCN4CCCC4)c2C)C(=O)N3)cc1
Out: 2.19

In: Give reported IC50 value for CCN(CC)CCNC(=O)c1c(C)[nH]c(/C=C2\C(=O)Nc3cccc(-c4cccc(Br)c4)c32)c1C
Out: 2.18

In: Give reported IC50 value for Cc1cc(C(=O)NCCN2CCCC2)c(/C=C2\C(=O)Nc3cccc(-c4ccc(F)c(Cl)c4)c32)[nH]1
Out: 9.87

In: Give reported IC50 value for Cc1[nH]c(/C=C2\C(=O)Nc3cccc(-c4ccc(Cl)cc4)c32)c(C)c1C(=O)NCCN1CCCC1
Out: 1.64

In: Give reported IC50 value for Cc1cc(C(=O)N2CC[C@H](N(C)C)C2)c(/C=C2\C(=O)Nc3cccc(-c4cccc(Cl)c4)c32)[nH]1
Out: 11.6

In: Give reported IC50 value for CCN(CC)CCNC(=O)c1c(C)[nH]c(/C=C2\C(=O)Nc3cccc(-c4cccc(F)c4)c32)c1C
Out: 2.32

In: Give reported IC50 value for Cc1[nH]c(/C=C2\C(=O)Nc3cccc(-c4ccccc4F)c32)c(C)c1C(=O)N1CCN(C)CC1
Out: 3.76

In: Give reported IC50 value for Cc1cc(C(=O)N2CC[C@H](N(C)C)C2)c(/C=C2\C(=O)Nc3cccc(-c4ccc(F)cc4)c32)[nH]1
Out: 11.9

In: Give reported IC50 value for CCN(CC)CCNC(=O)c1c[nH]c(/C=C2\C(=O)Nc3cccc(-c4ccc(Br)cc4)c32)c1C
Out: 9.12

----------
Biological target: MET (Homo sapiens)
Construct: Purified GST fusion protein containing the Met kinase domain, SUGEN, Inc
Sequence (P08581 1078-1345 limits assumed): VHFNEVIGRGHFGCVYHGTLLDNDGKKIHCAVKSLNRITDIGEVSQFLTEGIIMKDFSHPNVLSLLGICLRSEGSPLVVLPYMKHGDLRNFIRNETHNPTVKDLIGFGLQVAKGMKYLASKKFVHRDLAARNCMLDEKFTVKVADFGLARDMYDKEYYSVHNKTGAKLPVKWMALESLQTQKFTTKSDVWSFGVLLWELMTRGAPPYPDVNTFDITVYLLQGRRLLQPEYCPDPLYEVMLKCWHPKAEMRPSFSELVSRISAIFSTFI
Test: MET transphosphorylation assay
Details: GST fusion protein containing the Met kinase domain, poly(glu-tyr) substrate
Quantity: pIC50
Notebook: values listed as pIC50 are -log10 of the concentration (mol/L).

In: Give reported pIC50 value for CCN(CC)CCNC(=O)c1c(C)[nH]c(/C=C2\C(=O)Nc3cccc(-c4cccc(F)c4)c32)c1C
Out: 7.00

In: Give reported pIC50 value for CCOC(=O)c1c(C)[nH]c(/C=C2\C(=O)Nc3cccc(-c4cccc(F)c4)c32)c1CCCN1CCN(C)CC1
Out: 6.57

In: Give reported pIC50 value for COc1ccc(-c2cccc3c2/C(=C/c2[nH]c(C)c(C(=O)N4C[C@@H](C)N[C@@H](C)C4)c2C)C(=O)N3)cc1
Out: 6.57

In: Give reported pIC50 value for Cc1[nH]c(/C=C2\C(=O)Nc3cccc(-c4ccc(Cl)cc4)c32)c(C)c1C(=O)NCCN1CCCC1
Out: 6.85

In: Give reported pIC50 value for Cc1cc(C(=O)N2CC[C@@H](N(C)C)C2)c(/C=C2\C(=O)Nc3cccc(-c4ccc(Cl)cc4)c32)[nH]1
Out: 6.96

In: Give reported pIC50 value for COc1ccc(-c2cccc3c2/C(=C/c2[nH]c(C)cc2C(=O)NCCN2CCCC2)C(=O)N3)cc1
Out: 6.49

----------
Quantity: IC50

In: Specify the recorded IC50 for Cc1cc(C(=O)NCCn2ccnn2)c(/C=C2\C(=O)Nc3cccc(-c4cccc(Cl)c4)c32)[nH]1 , system: P38 (Homo sapiens, UniProt Q16539).
Sequence (Q16539 whole entry): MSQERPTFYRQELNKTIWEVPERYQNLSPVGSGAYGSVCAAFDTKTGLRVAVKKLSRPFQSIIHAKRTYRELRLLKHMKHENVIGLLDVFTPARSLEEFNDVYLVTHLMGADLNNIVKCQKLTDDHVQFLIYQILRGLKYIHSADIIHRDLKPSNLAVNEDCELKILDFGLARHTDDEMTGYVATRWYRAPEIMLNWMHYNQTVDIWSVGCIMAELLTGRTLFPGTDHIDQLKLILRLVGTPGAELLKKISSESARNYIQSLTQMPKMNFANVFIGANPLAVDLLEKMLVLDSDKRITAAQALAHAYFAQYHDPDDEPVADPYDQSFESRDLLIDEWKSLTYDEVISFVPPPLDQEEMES
Out: > 10 µM

In: Specify the recorded IC50 for Cc1[nH]c(/C=C2\C(=O)Nc3cccc(-c4ccc(Br)cc4)c32)c(C)c1C(=O)N1C[C@@H](C)N[C@@H](C)C1 , system: P38 (Homo sapiens, UniProt Q16539).
Out: > 10 µM

In: Specify the recorded IC50 for CCN(CC)CCNC(=O)c1c(C)[nH]c(/C=C2\C(=O)Nc3cccc(-c4cccc(F)c4)c32)c1C , system: P38 (Homo sapiens, UniProt Q16539).
Out: > 10 µM

----------
Molecular target: MET (Homo sapiens)
Construct: Purified GST fusion protein containing the Met kinase domain, SUGEN, Inc
Assay: MET transphosphorylation assay
Conditions: GST fusion protein containing the Met kinase domain, poly(glu-tyr) substrate
Quantity: pIC50
Notebook: values listed as pIC50 are -log10 of the concentration (mol/L).

In: Give reported pIC50 value for Cc1cc(C(=O)NCCn2ccnn2)c(/C=C2\C(=O)Nc3cccc(-c4cccc(Cl)c4)c32)[nH]1
Out: 6.89

In: Give reported pIC50 value for Cc1cc(C(=O)NCCN2CCCC2)c(/C=C2\C(=O)Nc3cccc(-c4ccc(Br)cc4)c32)[nH]1
Out: 7.14

In: Give reported pIC50 value for Cc1cc(C(=O)N2CC[C@H](N(C)C)C2)c(/C=C2\C(=O)Nc3cccc(-c4cccc(Cl)c4)c32)[nH]1
Out: 6.92

In: Give reported pIC50 value for CCN(CC)CCNC(=O)c1c(C)[nH]c(/C=C2\C(=O)Nc3cccc(-c4ccc(OC(F)(F)F)cc4)c32)c1C
Out: 6.17

In: Give reported pIC50 value for CCN(CC)CCNC(=O)c1c(C)[nH]c(/C=C2\C(=O)Nc3cccc(-c4cccc(OC)c4)c32)c1C
Out: 6.92

In: Give reported pIC50 value for COc1ccc(-c2cccc3c2/C(=C/c2[nH]c(C)c(C(=O)NCCN4CCCC4)c2C)C(=O)N3)cc1
Out: 6.96
